# MEASUREMENT NOTES: in vitro
# CONDITION SET: human, cryopreserved hepatocytes
Threshold check on hepatocyte CLint: strictly below 10 µL/min/1e6 cells is fulfilled; on or above 10 µL/min/1e6 cells is not fulfilled.

Check if hepatocyte CLint falls below 10 µL/min/1e6 cells for CCCc1nn(C)c2c(=O)[nH]c(-c3cc(S(=O)(=O)N4CCN(C)CC4)ccc3OCC)nc12 .
not fulfilled

Now the compound Cc1nc2n(c(=O)c1CCN1CCC(c3noc4cc(F)ccc34)CC1)CCCC2
not fulfilled

What about OCCN1CCN(CCCN2c3ccccc3Sc3ccc(C(F)(F)F)cc32)CC1 ?
not fulfilled

Can you handle COc1ccc(Cl)cc1C(=O)NCCc1ccc(S(=O)(=O)NC(=O)NC2CCCCC2)cc1 [GLYBURIDE] next?
fulfilled

Moving on to the next compound: CN1CCN2c3ccccc3Cc3ccccc3C2C1 (stereo not given)
not fulfilled
